Measured values drawn from patent US20250011363A1 for this set.

Biological target: acetylcholine receptor
Experiment: SPR, AchR immobilized on chip, peptide 10 uM

binder: RLICK [5mer-170]
Binding affinity (RU): 62
--
binder: KLISK [5mer-498]
Binding affinity (RU): 53
--
binder: RSICK [5mer-476]
Binding affinity (RU): 70
--
binder: RRYRR [5mer-185]
Binding affinity (RU): 86
--
binder: RGYLR [5mer-471]
Binding affinity (RU): 69
--
binder: KWVTK [5mer-161]
Binding affinity (RU): 52
--
binder: RGVTR [5mer-464]
Binding affinity (RU): 57
--
binder: RSRRR [5mer-172]
Binding affinity (RU): 82
--
binder: RSLLK [5mer-181]
Binding affinity (RU): 72
--
binder: KRYLR [5mer-155]
Binding affinity (RU): 57
--
binder: KGLYR [5mer-449]
Binding affinity (RU): 65
--
binder: RRVRK [5mer-466]
Binding affinity (RU): 53
--
binder: RWVCR [5mer-187]
Binding affinity (RU): 74
--
binder: RSIQK [5mer-153]
Binding affinity (RU): 72
--
binder: KLISR [5mer-198]
Binding affinity (RU): 74
--
binder: RWYLR [5mer-480]
Binding affinity (RU): 75
--
binder: KRRCR [5mer-497]
Binding affinity (RU): 76
